Data provenance: PubChem BioAssay AID1159580

protocol.description: chemical genetic growth profiling, strain panel (AID 1159580);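 further: tested at 20 µM; growth read once vehicle control cultures reached saturation at 30 °C; lower values mean less growth of the strain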
details: S. cerevisiae deletion strains, growth OD, locus YBR009C, strain hhf1
Out of some 5,500 compounds screened, about 2,000 (36%) were called active. Inconclusive results (about 18%) are left out. No stated cut-off is given here; in the data, active means normalized growth mostly below about 0.91 (no sharp cut-off); inconclusive means no clear call, values can overlap the other calls; inactive means mostly above about 0.92. Some of the results follow.
Outcomes you can answer with include only these: active, inactive

Qu. Entry NC(=O)N1c2ccccc2CC(=O)c2ccccc21 : call = ?
Ans. inactive

Qu. Entry Cc1cc(=O)c2c(O)c(C)c(O)cc2o1 : call = ?
Ans. inactive

Qu. Entry COc1ccc2c(c1)OC[C@@H](Cc1ccc(OC)c(OC)c1)[C@@H]2O : call = ?
Ans. inactive

Qu. Entry CNc1ccccc1C(=O)N1CCc2c([nH]c3ccccc23)C1=O : call = ?
Ans. inactive

Qu. Entry COc1cc(O)c2c(=O)cc(C)oc2c1CC=C(C)C : call = ?
Ans. inactive

Qu. Entry COc1c2c(c(CC=C(C)C)c3oc(=O)c(-c4ccc(O)cc4)c(O)c13)OC(C)(C)C=C2 : call = ?
Ans. active

Qu. Entry O=C(O)c1ccccc1OP(=O)(O)O : call = ?
Ans. inactive

Qu. Entry Cc1c(N(C)C)c(=O)n(-c2ccccc2)n1C : call = ?
Ans. inactive

Qu. Entry COC(=O)C1[C@H]2C[C@H]3c4[nH]c5ccccc5c4CCN3C[C@@H]2CC[C@@H]1O (some centres not stated) : call = ?
Ans. inactive

Qu. Entry COc1c(O)cc2oc3cc(O)c(CC=C(C)C)c(O)c3c(=O)c2c1CC=C(C)C : call = ?
Ans. inactive

Qu. Entry C[CH2][Hg][S]c1ccccc1C(=O)O : call = ?
Ans. active

Qu. Entry CC(=O)O[C@]1(C(C)=O)CCC2C3C=C(C)C4=CC(=O)CCC4(C)C3CCC21C (some centres not stated) : call = ?
Ans. inactive

Qu. Entry COC1C(O)C(O)C(O)[C@@H](O)C1O (some centres not stated) : call = ?
Ans. inactive

Qu. Entry CCN(CC)C(=S)SSC(=S)N(CC)CC : call = ?
Ans. active

Qu. Entry CCCCCC(=O)O[C@]1(C(C)=O)CCC2C3CCC4=CC(=O)CC[C@]4(C)C3CC[C@@]21C (some centres not stated) : call = ?
Ans. inactive

Qu. Entry O=c1ccc2cc(O)c(O)cc2o1 : call = ?
Ans. inactive

Qu. Entry COc1cc(OC)c2c(c1)O[C@H](c1ccc(OC)c(OC)c1)[C@@H](O)C2 : call = ?
Ans. inactive

Qu. Entry CC1(C)C2CC[C@]3(C)C(C(=O)C=C4[C@@H]5C[C@@](C)(C(=O)O)CC[C@]5(C)CC[C@]43C)[C@@]2(C)CC[C@@H]1O (some centres not stated) : call = ?
Ans. inactive

Qu. Entry COc1ccc2cc1Oc1ccc(cc1)C[C@H]1c3c(cc4c(c3Oc3cc5c(cc3OC)CCN(C)[C@@H]5C2)OCO4)CCN1C : call = ?
Ans. inactive

Qu. Entry CCCCCC(C)N (configuration not stated) : call = ?
Ans. inactive

Qu. Entry CC(=O)O[C@@](C)(CCC=C(C)C)C1CC=C(C)CC1 (some centres not stated) : call = ?
Ans. inactive

Qu. Entry CC(=O)O[C@]1(C(C)=O)CCC2C3C[C@H](C)C4=CC(=O)CC[C@]4(C)C3CC[C@@]21C (some centres not stated) : call = ?
Ans. inactive
